System: T-47D breast
Assay: NCI-60 one-dose screen, 48 h (100 = growth as untreated, 0 = no growth, -100 = all killed)
Conditions: 10 µM unless noted
This is part of a sample that, as a whole, favours compounds with a hit. Of some 83,000 tested, about 20% had one in any assay.
For each entry below, report its growth value.
Write the number in % without appending the unit.

Record COc1ccc2c(c1)c(-c1nc(-c3cn(C)c4ncccc34)cs1)cn2CCCCN1CCCCC1 . Reported growth: 61

Record COc1ccc(/C=C\c2cc(OC)c(OC)c(OC)c2)cc1NS(=O)(=O)c1ccc(Cl)cc1 . Reported growth: 59.9

Record CC(=O)OC1C(OC/C2=C/C3[C@@H](C(C)C)CC=C(C)[C@@H]3CC(OC(=O)/C=C/c3cn(C)cn3)[C@]3(C)C=C[C@@]2(O)O3)OCC(O)C1O (some centres not stated) . Reported growth: 23

Record N#CC1(c2ccccc2)CCN(Cc2ccccc2)CC1 . Reported growth: 100

Record CC(=O)O[C@H](C[C@H](C(C)C)N(C)C(=O)[C@@H](NC(=O)[C@H]1CCCCN1C)C(C)(C)C)c1nc(C(=O)N[C@@H](Cc2ccccc2)C[C@H](C)C(=O)O)cs1 . Reported growth: 45.6

Record CC(=O)OC1CCC2C3CCC4=C/C(=N/OC(=O)c5ccc(N(CCCl)CCCl)cc5)CCC4(C)C3CC(C)C12 (configuration not stated) . Reported growth: 43.8

Record O=C1Nc2ccccc2C2c3cccn3-c3ccccc3CN12 (configuration not stated) . Reported growth: 27.7

Record CCCCC1(CCC)C(=O)NC(=S)NC1=O . Reported growth: 92.3

Record C/C(=C\c1ccn(-c2ccccc2N)n1)[C@@H]1C[C@@H]2O[C@]2(C)CCC[C@H](C)[C@H](O)[C@@H](C)C(=O)C(C)(C)[C@@H](O)CC(=O)O1 . Reported growth: 36.4

Record CC1[C@H](C)OC(=O)CC(O)CC(O)CC(O)CCC(O)C(O)C[C@]2(O)CC(O)C(C(=O)O)C(CC(OC3O[C@H](C)[C@@H](O)[C@H](N)[C@@H]3O)/C=C/C=C/C=C/C=C/CC/C=C/C=C/[C@H](C)[C@H]1O)O2 (some centres not stated) . Reported growth: 108

Record COC1OC(CO)C(O)C(O)[CH]1[Hg][O]C(C)=O (configuration not stated) . Reported growth: 63.8

Record COC(=O)CCc1c[nH]c2ccc(N(CCCl)CCCl)cc12 . Reported growth: 60.2

Record COC(=O)[C@@H](C)C[C@H](Cc1ccccc1)NC(=O)c1csc([C@@H](C[C@H](C(C)C)N(C)C(=O)[C@@H](NC(=O)C23CC(NC(C)=O)(C2)C3)C2CC2)OC(C)=O)n1 . Reported growth: 62.7

Record O=C(Nc1ccc([N+](=O)[O-])cc1)C(Cl)(Cl)Cl . Reported growth: 80.7

Record C/C(CC(C)(C)N1CC1)=N\NC(=O)Nc1cccc2ccccc12 . Reported growth: 55.8

Record COC(=O)[C@@H](C)C[C@H](Cc1ccccc1)NC(=O)c1csc([C@@H](C[C@H](C(C)C)N(C)C(=O)[C@@H](NC(=O)[C@H]2CCCCN2C)C(C(F)(F)F)C(F)(F)F)OC(C)=O)n1 . Reported growth: 59.7

Record O=C(NCCN1CC1)C(=O)NCCN1CC1 . Reported growth: 88.2

Record CC1=C(CNO)C2=C(C)C3(CC3)[C@@](C)(O)C(=O)C2=C1 . Reported growth: -3.61

Record NC(=S)c1cn(C2OC(CO)C(O)C2O)c2ncnc(N)c12 (configuration not stated) . Reported growth: -16.9

Record CCOC(=O)[C@@H](C)C[C@H](Cc1ccccc1)NC(=O)c1csc([C@@H](C[C@H](C(C)C)N(C)C(=O)[C@H](CCC(C)C)NC(=O)[C@H]2CCCCN2C)OC(C)=O)n1 . Reported growth: 64.9

Record CC1(C)CN1P(=O)(N1CC1(C)C)N1CC1(C)C (configuration not stated) . Reported growth: 107

Record N#CC1C(C#N)C2CCC1C1C2N1c1ccccc1 (configuration not stated) . Reported growth: 108

Record Cc1cc(N(CCCl)CCCl)ccc1/C=N\NC(=O)c1ccncc1 . Reported growth: 54.4

Record ClCCN(CCCl)c1ccc(-n2cnc3c(Cl)ncnc32)cc1 . Reported growth: 41.1

Record CC12CCC3C(CCC4Cc5[nH]c6ccccc6c5CC43C)C1CCC2O (configuration not stated) . Reported growth: 29.2

Record CCOc1ccc(/C=C/[N+](=O)[O-])cc1 . Reported growth: 86

Record O=C1CC2(CC3(Cl)C(Cl)=C(Cl)C2(Cl)C3(Cl)Cl)C(=O)O1 (configuration not stated) . Reported growth: 99.6

Record COc1cc2c(cc1OCCCCCn1c(-c3ccco3)nc3ccccc31)N=C[C@@H]1CCCN1C2=O . Reported growth: 27.8

Record CC[C@H](C)[C@H](NC(=O)c1cccn1C)C(=O)N(C)[C@H](C[C@@H](OC(C)=O)c1nc(C(=O)N[C@@H](Cc2ccccc2)C[C@H](C)C(=O)OC)cs1)C(C)C . Reported growth: 64

Record COC(=O)[C@@H](NC(=O)c1cn(CCC2CCCCC2)c2ccccc12)C(C)(C)C . Reported growth: 61.9

Record COc1ccc(/C=C\c2cc(OC)c(OC)c(OC)c2)c(NS(=O)(=O)c2ccc(Cl)cc2)c1O . Reported growth: 84.7

Record Cc1ccc(C(=O)NCCCOc2ccc(N)cc2Cl)cc1S(=O)(=O)F . Reported growth: 81.9
